Data origin: patent US8383581B2

Assay: Stability of peptides in human liver microsomes
Assay type: in vitro ADME
Details: human, microsomes, 24 h, 2 μM, pH 7.8
Where a SMILES comes first, the peptide text is derived from it. [ ]: non-standard residue; d: D form. ξ: configuration not given here. ξBip(2'-Et-4'-OMe) = CCc1cc(OC)ccc1-c1ccc(CC(N)C(=O)O)cc1; Arg(NO2) = N=C(NCCC[C@H](N)C(=O)O)N[N+](=O)[O-]; αMePhe(2,6-F2) = C[C@](N)(Cc1c(F)cccc1F)C(=O)O; ξαMePhe(2,6-F2) = CC(N)(Cc1c(F)cccc1F)C(=O)O; αMePhe(2-F) = C[C@](N)(Cc1ccccc1F)C(=O)O; ξαMePhe(2-F) = CC(N)(Cc1ccccc1F)C(=O)O; hhPhe = N[C@@H](CCCc1ccccc1)C(=O)O; hArg = N=C(N)NCCCC[C@H](N)C(=O)O; hCit = NC(=O)NCCCC[C@H](N)C(=O)O; Cit = NC(=O)NCCC[C@H](N)C(=O)O; Nle = CCCC[C@H](N)C(=O)O; Orn = NCCC[C@H](N)C(=O)O; ξαMeP = CC1(C(=O)O)CCCN1; Ac5c = NC1(C(=O)O)CCCC1; Aib = CC(C)(N)C(=O)O
QUANTITY: % degradation of peptides in 24 h when incubated with liver microsomes (%)
Numbers only, in %.

Known results for compounds:
# COMPOUND, UNIT_TAG, NUMERIC_VALUE
rows = [
    ("CCc1cc(OC)ccc1-c1ccc(CC(NC(=O)[C@H](CCCCN)NC(=O)[C@H](C)NC(=O)[C@H](CCCCNC(=N)N)NC(=O)[C@H](CCC(N)=O)NC(=O)[C@H](Cc2c[nH]cn2)NC(=O)[C@H](CCSC)NC(=O)[C@H](CC(C)C)NC(=O)[C@H](CCC(N)=O)NC(=O)[C@@H](NC(=O)[C@H](CCC(=O)O)NC(=O)C(C)(C)NC(=O)[C@@H](NC(=O)C2(N)CCCC2)C(C)C)[C@@H](C)CC)C(N)=O)cc1 (some centres unmarked) [Seq. ID. 650] (H-[Ac5c]V[Aib]EIQLMHQ[hArg]AK[ξBip(2'-Et-4'-OMe)]-NH2)", "%", 77),
    ("CCCC[C@H](NC(=O)C(C)(Cc1c(F)cccc1F)NC(=O)[C@H](CCC(N)=O)NC(=O)[C@@H](NC(=O)[C@H](CCC(=O)O)NC(=O)C(C)(C)NC(=O)[C@@H](NC(=O)C(C)(C)N)C(C)C)[C@@H](C)CC)C(=O)N[C@@H](Cc1c[nH]cn1)C(=O)N[C@@H](CCC(N)=O)C(=O)NC(C)(C)C(=O)NC(C)(C)C(=O)N[C@@H](CCCNC(=N)N[N+](=O)[O-])C(=O)NC(C)(Cc1ccccc1F)C(N)=O (some centres unmarked) [Seq. ID. 590] (H-[Aib]V[Aib]EIQ[ξαMePhe(2,6-F2)][Nle]HQ[Aib][Aib][Arg(NO2)][ξαMePhe(2-F)]-NH2)", "%", 35),
    ("CCCC[C@H](NC(=O)[C@](C)(Cc1c(F)cccc1F)NC(=O)[C@H](CCC(N)=O)NC(=O)[C@@H](NC(=O)[C@H](CCC(=O)O)NC(=O)C(C)(C)NC(=O)[C@@H](NC(=O)C(C)(C)N)C(C)C)[C@@H](C)CC)C(=O)N[C@@H](Cc1c[nH]cn1)C(=O)N[C@@H](CCC(N)=O)C(=O)NC(C)(C)C(=O)NC(C)(C)C(=O)N[C@@H](CCCNC(N)=O)C(=O)N[C@@](C)(Cc1c(F)cccc1F)C(N)=O [Seq. ID. 550] (H-[Aib]V[Aib]EIQ[αMePhe(2,6-F2)][Nle]HQ[Aib][Aib][Cit][αMePhe(2,6-F2)]-NH2)", "%", 82),
]

Hi, could you look up % degradation of peptides in 24 h when incubated with liver microsomes for each item in my list?
1. CCCC[C@H](NC(=O)[C@H](CC(C)C)NC(=O)[C@H](CCC(N)=O)NC(=O)[C@@H](NC(=O)[C@H](CCC(=O)O)NC(=O)C(C)(C)NC(=O)[C@@H](NC(=O)C(C)(C)N)C(C)C)[C@@H](C)CC)C(=O)N[C@@H](Cc1c[nH]cn1)C(=O)N[C@@H](CCC(N)=O)C(=O)N[C@@H](CCCN)C(=O)N[C@@H](C)C(=O)NC(C)(C)C(=O)NC(Cc1ccc(-c2ccc(OC)cc2CC)cc1)C(=O)N[C@@H](CCCc1ccccc1)C(N)=O (some centres unmarked) [Seq. ID. 750] (H-[Aib]V[Aib]EIQL[Nle]HQ[Orn]A[Aib][ξBip(2'-Et-4'-OMe)][hhPhe]-NH2)
2. CCCC[C@H](NC(=O)C(C)(Cc1ccccc1F)NC(=O)[C@H](CCC(N)=O)NC(=O)[C@@H](NC(=O)[C@H](CCC(=O)O)NC(=O)C(C)(C)NC(=O)[C@@H](NC(=O)C1(N)CCCC1)C(C)C)[C@@H](C)CC)C(=O)N[C@@H](Cc1c[nH]cn1)C(=O)N[C@@H](CCC(N)=O)C(=O)N[C@@H](CCCCNC(N)=O)C(=O)N[C@@H](C)C(=O)N[C@@H](CCCNC(N)=O)C(=O)NC(C)(Cc1ccccc1F)C(N)=O (some centres unmarked) [Seq. ID. 411] (H-[Ac5c]V[Aib]EIQ[ξαMePhe(2-F)][Nle]HQ[hCit]A[Cit][ξαMePhe(2-F)]-NH2)
3. CCCC[C@H](NC(=O)C(C)(Cc1ccccc1F)NC(=O)[C@H](CCC(N)=O)NC(=O)[C@@H](NC(=O)[C@H](CCC(=O)O)NC(=O)C1(NC(=O)[C@@H](NC(=O)C2(N)CCCC2)C(C)C)CCCC1)[C@@H](C)CC)C(=O)N[C@@H](Cc1c[nH]cn1)C(=O)N[C@@H](CCC(N)=O)C(=O)N[C@@H](CCCCNC(=N)N)C(=O)N1CCCC1(C)C(=O)N[C@@H](CCCCN)C(=O)NC(C)(Cc1c(F)cccc1F)C(N)=O (some centres unmarked) [Seq. ID. 100] (H-[Ac5c]V[Ac5c]EIQ[ξαMePhe(2-F)][Nle]HQ[hArg][ξαMeP]K[ξαMePhe(2,6-F2)]-NH2)
4. CCCC[C@H](NC(=O)C(C)(Cc1ccccc1F)NC(=O)[C@H](CCC(N)=O)NC(=O)[C@@H](NC(=O)[C@H](CCC(=O)O)NC(=O)C(C)(C)NC(=O)[C@@H](NC(=O)C1(N)CCCC1)C(C)C)[C@@H](C)CC)C(=O)N[C@@H](Cc1c[nH]cn1)C(=O)N[C@@H](CCC(N)=O)C(=O)N[C@@H](CCCNC(N)=O)C(=O)NC(C)(C)C(=O)NC(C)(Cc1c(F)cccc1F)C(=O)NC(C)(Cc1ccccc1F)C(N)=O (some centres unmarked) [Seq. ID. 380] (H-[Ac5c]V[Aib]EIQ[ξαMePhe(2-F)][Nle]HQ[Cit][Aib][ξαMePhe(2,6-F2)][ξαMePhe(2-F)]-NH2)
5. CCCC[C@H](NC(=O)[C@](C)(Cc1c(F)cccc1F)NC(=O)[C@H](CCC(N)=O)NC(=O)[C@@H](NC(=O)[C@H](CCC(=O)O)NC(=O)C(C)(C)NC(=O)[C@@H](NC(=O)C1(N)CCCC1)C(C)C)[C@@H](C)CC)C(=O)N[C@@H](Cc1c[nH]cn1)C(=O)N[C@@H](CCC(N)=O)C(=O)N[C@@H](CCCCNC(=N)N)C(=O)NC(C)(C)C(=O)N[C@@H](CCCCN)C(=O)N[C@@](C)(Cc1ccccc1F)C(N)=O [Seq. ID. 85] (H-[Ac5c]V[Aib]EIQ[αMePhe(2,6-F2)][Nle]HQ[hArg][Aib]K[αMePhe(2-F)]-NH2)

Output:
[85, 81, 82, 86, 100]

----------
Assay: Stability of peptides in simulated intestinal fluid (pH 7.5)
Assay type: in vitro ADME
Settings: simulated gi fluid, pH 7.5
Where a SMILES comes first, the peptide text is derived from it. [ ]: non-standard residue; d: D form. ξ: configuration not given here. ξαMeBip(2'-Et,4'-OMe) = CCc1cc(OC)ccc1-c1ccc(CC(C)(N)C(=O)O)cc1; Arg(NO2) = N=C(NCCC[C@H](N)C(=O)O)N[N+](=O)[O-]; ξαMePhe(2,6-F2) = CC(N)(Cc1c(F)cccc1F)C(=O)O; ξαMePhe(2-F) = CC(N)(Cc1ccccc1F)C(=O)O; ξαMeW = CC(N)(Cc1c[nH]c2ccccc12)C(=O)O; hhPhe = N[C@@H](CCCc1ccccc1)C(=O)O; hArg = N=C(N)NCCCC[C@H](N)C(=O)O; hCit = NC(=O)NCCCC[C@H](N)C(=O)O; ξαMeNle = CCCCC(C)(N)C(=O)O; Nle = CCCC[C@H](N)C(=O)O; Ac5c = NC1(C(=O)O)CCCC1; Ac3c = NC1(C(=O)O)CC1; Aib = CC(C)(N)C(=O)O
QUANTITY: half-life

Known results for compounds:
# COMPOUND, RESULT
measured = [
    ("CCc1cc(OC)ccc1-c1ccc(CC(C)(NC(=O)[C@H](CCCCN)NC(=O)[C@H](C)NC(=O)[C@H](CCCCNC(=N)N)NC(=O)[C@H](CCC(N)=O)NC(=O)[C@H](Cc2c[nH]cn2)NC(=O)[C@H](CCSC)NC(=O)[C@H](CC(C)C)NC(=O)[C@H](CCC(N)=O)NC(=O)[C@@H](NC(=O)[C@H](CCC(=O)O)NC(=O)C(C)(C)NC(=O)[C@@H](NC(=O)C(C)(C)N)C(C)C)[C@@H](C)CC)C(=O)N[C@@H](CCCc2ccccc2)C(N)=O)cc1 (stereo partly shown) [Seq. ID. 890] (H-[Aib]V[Aib]EIQLMHQ[hArg]AK[ξαMeBip(2'-Et,4'-OMe)][hhPhe]-NH2)", "> 24 h"),
    ("CCCC[C@H](NC(=O)C(C)(Cc1c(F)cccc1F)NC(=O)[C@H](CCC(N)=O)NC(=O)[C@@H](NC(=O)[C@H](CCC(=O)O)NC(=O)C(C)(C)NC(=O)[C@@H](NC(=O)C1(N)CCCC1)C(C)C)[C@@H](C)CC)C(=O)N[C@@H](Cc1c[nH]cn1)C(=O)N[C@@H](CCC(N)=O)C(=O)N[C@@H](CCCCNC(N)=O)C(=O)NC(C)(C)C(=O)NC(C)(C)C(=O)NC(C)(Cc1c(F)cccc1F)C(N)=O (stereo partly shown) [Seq. ID. 440] (H-[Ac5c]V[Aib]EIQ[ξαMePhe(2,6-F2)][Nle]HQ[hCit][Aib][Aib][ξαMePhe(2,6-F2)]-NH2)", "> 24 h"),
    ("CCCC[C@H](NC(=O)C(C)(Cc1c(F)cccc1F)NC(=O)[C@H](CCC(N)=O)NC(=O)[C@@H](NC(=O)[C@H](CCC(=O)O)NC(=O)C(C)(C)NC(=O)[C@@H](NC(=O)C(C)(C)N)C(C)C)[C@@H](C)CC)C(=O)N[C@@H](Cc1c[nH]cn1)C(=O)N[C@@H](CCC(N)=O)C(=O)NC(C)(C)C(=O)NC(C)(C)C(=O)N[C@@H](CCCNC(=N)N[N+](=O)[O-])C(=O)NC(C)(Cc1ccccc1F)C(N)=O (stereo partly shown) [Seq. ID. 590] (H-[Aib]V[Aib]EIQ[ξαMePhe(2,6-F2)][Nle]HQ[Aib][Aib][Arg(NO2)][ξαMePhe(2-F)]-NH2)", "> 24 h"),
]

Continue with the next compound.
Input: // query half-life value for entry CCCCC(C)(NC(=O)[C@H](CC(C)C)NC(=O)[C@H](CCC(N)=O)NC(=O)[C@@H](NC(=O)[C@H](CCC(=O)O)NC(=O)C(C)(C)NC(=O)[C@@H](NC(=O)C1(N)CC1)C(C)C)[C@@H](C)CC)C(=O)N[C@@H](Cc1c[nH]cn1)C(=O)N[C@@H](CCC(N)=O)C(=O)N[C@@H](CCCCNC(=N)N)C(=O)N[C@@H](C)C(=O)N[C@@H](CCCCNC(=N)N)C(=O)NC(C)(Cc1c[nH]c2ccccc12)C(=O)N[C@@H](CCCc1ccccc1)C(N)=O (stereo partly shown) [Seq. ID. 945] (H-[Ac3c]V[Aib]EIQL[ξαMeNle]HQ[hArg]A[hArg][ξαMeW][hhPhe]-NH2)
Output: 0.5 h
